- study system: β-secretase(BACE) (Homo sapiens)
- Construct: purchased Panvera
- Sequence (P56817 46-501): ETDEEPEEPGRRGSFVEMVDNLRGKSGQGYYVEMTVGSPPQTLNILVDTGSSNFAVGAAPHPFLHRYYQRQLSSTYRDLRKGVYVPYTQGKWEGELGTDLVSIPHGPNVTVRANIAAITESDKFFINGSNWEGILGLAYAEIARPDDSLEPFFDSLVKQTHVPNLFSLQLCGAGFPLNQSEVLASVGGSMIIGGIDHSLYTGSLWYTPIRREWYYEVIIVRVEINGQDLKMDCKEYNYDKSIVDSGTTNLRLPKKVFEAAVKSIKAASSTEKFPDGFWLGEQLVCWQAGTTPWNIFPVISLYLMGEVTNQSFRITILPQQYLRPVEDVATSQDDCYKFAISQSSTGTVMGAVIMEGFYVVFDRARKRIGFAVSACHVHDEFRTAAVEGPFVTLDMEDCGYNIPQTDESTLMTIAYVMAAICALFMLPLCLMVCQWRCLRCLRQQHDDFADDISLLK
- experiment: BACE FS1% Inhibition Assay
- Format: biochemical
- test context: 1 μM test compound; FS1 substrate; read-out: % Inhibition (FS)
- Protocol: BACE FS1% Inhibition Assay The following reagents were used in this assay: sodium acetate, PEG8000 (Sigma), DMSO, HEPES, FS1 substrate [[…]] […] The FS1-substrate stock solution was prepared in DMSO as a 10 mg/mL solution. The FS1-substrate working solution was prepared by diluting the 10 mg/mL stock solution with substrate assay buffer to a final concentration of 300 μg/mL. […] For test compounds, % inhibition was determined at each concentration as follows: [formula]
readout type: inhibition at 1 µM (%)
Use % as the unit, but write only the number.

Input CN(C(=O)CC[C@@H](C1CCOCC1)N1Cc2cc(Oc3ccccc3)ccc2N=C1N)[C@H]1CC[C@H](C(=O)O)CC1 [Compound 746] . Output inhibition at 1 µM: 104

Further cases:
Input CN(C(=O)CC[C@@H](C1CCOCC1)N1Cc2cc(Oc3ccccc3)ccc2N=C1N)C1CCCCC1 [Compound 709] . Output inhibition at 1 µM: 143

Input CCCN1Cc2cc(Oc3cccc(NCc4ccc(C)cc4)c3)ccc2N=C1N [Compound 729] . Output inhibition at 1 µM: 61
